A collection of molecules and their measured pKi
assayed system: human Adenosine A1 receptor (Homo sapiens, UniProt P30542)
Sequence (P30542 1-326): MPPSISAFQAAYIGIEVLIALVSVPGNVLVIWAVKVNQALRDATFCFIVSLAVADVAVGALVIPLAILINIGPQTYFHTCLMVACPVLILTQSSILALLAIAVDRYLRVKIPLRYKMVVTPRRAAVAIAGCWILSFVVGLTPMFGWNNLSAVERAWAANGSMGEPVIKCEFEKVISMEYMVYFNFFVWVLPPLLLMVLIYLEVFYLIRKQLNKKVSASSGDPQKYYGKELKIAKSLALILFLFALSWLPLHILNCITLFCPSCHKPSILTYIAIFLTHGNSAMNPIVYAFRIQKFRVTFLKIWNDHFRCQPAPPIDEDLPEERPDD
pKi: −log10 of the molar value. Structures can show the parent of a compound that is named as a salt.
property name: pKi

# molecule, measured value
data = [
    ("C[C@@H]1CN(c2ccn3nc(-c4ccco4)c(C#N)c3n2)CCN1 [Example 82, hydrochloride]", 5.36),
    ("Cc1cc(-c2c(-c3cccc(C#N)c3)nn3ccc(NS(C)(=O)=O)nc23)cc(Cl)n1 [Example 16]", 6.52),
    ("Cc1cccnc1CN1CCN(c2ccn3nc(-c4cccc(C#N)c4)c(C#N)c3n2)CC1 [Example 59]", 5.99),
    ("N#Cc1c(-c2ccco2)nn2ccc(N3CCN(Cc4c(F)cc(F)cc4F)CC3)nc12 [Example 51.1]", 6.49),
    ("Cc1cc(-c2c(-c3cccc(C#N)c3)nn3ccc(C(=O)NC4(C)CCNC4)nc23)cc(Cl)n1 (centres unmarked) [Example 7.8]", 6.80),
    ("N#Cc1c(-c2cccc(F)c2)nn2ccc(N)nc12 [Example 72]", 9.52),
    ("Cc1cc(-c2c(-c3cccc(C#N)c3)nn3ccc(C(=O)N[C@@H]4COC[C@H]4O)nc23)cc(C)n1 [Example 92.31]", 6.48),
    ("Cc1cc(-c2c(-c3cccc(C#N)c3)nn3ccc(C(=O)NCC(C)(O)CO)nc23)cc(C)n1 (centres unmarked) [Example 92.1]", 6.65),
]
